Reported IC50 values follow for various molecules
biological target: CDK2/cyclin A2 protein kinase (Homo sapiens, UniProt P24941); assay: CDK2/cyclin A2 kinase assay (Promega Kinase-Glo Plus luminescence kit); assay type: biochemical; conditions: CDK2/cyclin A2, Kinase-Glo Plus luminescence; read-out: CDK2 IC50 (µM) ± SD
Only the number, expressed in µM, is required.

Examples with their reported IC50 follow.
Data request: Give the reported value of IC50 for this record: N#Cc1c(-c2cccs2)cc(-c2ccc3ccccc3c2)[nH]c1=O [compound 1]
Data returned: 0.57

Data request: Give the reported value of IC50 for this record: N#Cc1c(-c2cccs2)cc(-c2ccc3ccccc3c2)nc1OC1=NC(=S)NC1 [compound 3]
Data returned: 1.01

Data request: Give the reported value of IC50 for this record: N#Cc1c(-c2cccs2)cc(-c2ccc3ccccc3c2)[nH]c1=S [compound 7]
Data returned: 1.27

Data request: Give the reported value of IC50 for this record: N#Cc1c(-c2cccs2)cc(-c2ccc3ccccc3c2)nc1OC(=O)CCl [compound 2]
Data returned: 1.79

New cases:
Data request: Give the reported value of IC50 for this record: CCOC(=O)COc1nc(-c2ccc3ccccc3c2)cc(-c2cccs2)c1C#N [compound 13]
Data returned: 4.45

Data request: Give the reported value of IC50 for this record: COc1nc(-c2ccc3ccccc3c2)cc(-c2cccs2)c1C#N [compound 5]
Data returned: 3.53

Origin of the recorded values: paper PMC8272136
